Molecular target: recombinant guanylate cyclase reporter cell line (Rattus norvegicus, UniProt P19686+P20595)
Construct: expressed in transfected cells
Sequence (P20595 1-619): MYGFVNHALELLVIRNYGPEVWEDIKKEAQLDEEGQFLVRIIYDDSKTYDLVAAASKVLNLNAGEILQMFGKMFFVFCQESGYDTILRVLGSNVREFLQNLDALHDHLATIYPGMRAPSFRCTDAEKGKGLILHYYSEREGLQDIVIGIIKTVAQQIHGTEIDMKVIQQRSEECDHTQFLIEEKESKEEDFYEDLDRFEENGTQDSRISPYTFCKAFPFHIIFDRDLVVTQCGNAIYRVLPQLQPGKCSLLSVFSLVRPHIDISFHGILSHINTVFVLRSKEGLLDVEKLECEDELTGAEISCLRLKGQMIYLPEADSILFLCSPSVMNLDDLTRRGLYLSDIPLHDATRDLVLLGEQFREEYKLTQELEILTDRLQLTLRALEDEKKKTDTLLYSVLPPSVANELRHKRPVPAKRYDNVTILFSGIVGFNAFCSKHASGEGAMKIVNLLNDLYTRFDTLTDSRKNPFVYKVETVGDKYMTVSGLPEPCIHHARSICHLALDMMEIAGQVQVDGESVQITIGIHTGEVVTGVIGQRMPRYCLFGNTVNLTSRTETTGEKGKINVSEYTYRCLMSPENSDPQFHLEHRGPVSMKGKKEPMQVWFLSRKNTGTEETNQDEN
Sequence (P19686 1-690): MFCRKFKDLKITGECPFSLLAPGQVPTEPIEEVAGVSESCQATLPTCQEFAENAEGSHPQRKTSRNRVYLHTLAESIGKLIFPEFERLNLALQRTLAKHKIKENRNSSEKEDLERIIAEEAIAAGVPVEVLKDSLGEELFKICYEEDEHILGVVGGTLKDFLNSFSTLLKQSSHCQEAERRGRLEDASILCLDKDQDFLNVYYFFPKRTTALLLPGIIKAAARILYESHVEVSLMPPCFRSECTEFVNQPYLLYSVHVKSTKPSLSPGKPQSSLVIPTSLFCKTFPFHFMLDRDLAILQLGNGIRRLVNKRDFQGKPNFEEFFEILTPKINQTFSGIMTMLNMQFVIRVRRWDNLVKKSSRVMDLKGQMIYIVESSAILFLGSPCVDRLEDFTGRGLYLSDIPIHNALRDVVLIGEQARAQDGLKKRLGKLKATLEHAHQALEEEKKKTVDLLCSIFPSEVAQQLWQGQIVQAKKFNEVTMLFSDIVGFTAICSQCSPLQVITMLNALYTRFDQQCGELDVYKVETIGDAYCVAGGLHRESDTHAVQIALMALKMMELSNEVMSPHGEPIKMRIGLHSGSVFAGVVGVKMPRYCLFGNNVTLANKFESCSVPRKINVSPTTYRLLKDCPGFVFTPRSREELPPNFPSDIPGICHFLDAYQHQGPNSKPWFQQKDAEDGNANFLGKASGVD
Assay: Action on recombinant guanylate cyclase reporter cell line
Format: cell-based
Conditions: representative MEC values
I would appreciate it if you labelled entries class 1 when MEC (minimal effective concentration) is 1 µM or higher, otherwise class 0.

Completed entries (count: 6):
{"Molecule": "COC(=O)C(CCCC(F)(F)F)NC(=O)c1c(C)nc2c(OCc3c(F)ccc(F)c3F)cc(C)cn12 (racemic) [Example 14]", "Discrete label": "class 0"}
{"Molecule": "COC(=O)C(CCCC(F)(F)F)NC(=O)c1c(C)nc2c(OCc3c(F)cccc3F)cc(Cl)cn12 (racemic) [Example 13]", "Discrete label": "class 0"}
{"Molecule": "COC(=O)C(CC(F)(F)F)NC(=O)c1c(C)nc2c(OCc3c(F)cccc3F)cccn12 (racemic) [Example 9]", "Discrete label": "class 1"}
{"Molecule": "COC(=O)C(NC(=O)c1c(C)nc2c(OCc3c(F)cccc3F)cccn12)c1ccc(F)cc1 (racemic) [Example 1]", "Discrete label": "class 0"}
{"Molecule": "Cc1nc2c(OCc3c(F)cccc3F)cccn2c1C(=O)N[C@@H]1CCOC1=O [Example 3]", "Discrete label": "class 0"}
{"Molecule": "COC(=O)[C@H]1CC[C@H](CNC(=O)c2c(C)nc3c(OCc4c(F)cccc4F)cc(C)cn23)CC1 [Example 24]", "Discrete label": "class 0"}

# evaluate next
Quick check, MEC (minimal effective concentration) >= 1 µM? COC(=O)C(CCCC(F)(F)F)NC(=O)c1c(C)nc2c(OCc3c(F)cccc3F)cccn12 (racemic) [Example 11]
class 0

Origin of measurements: patent US8796305B2
